Molecular target: T1, human GITR on naïve CD4+ T cells (human, UniProt Q9Y5U5 26-241)
T1 sequence: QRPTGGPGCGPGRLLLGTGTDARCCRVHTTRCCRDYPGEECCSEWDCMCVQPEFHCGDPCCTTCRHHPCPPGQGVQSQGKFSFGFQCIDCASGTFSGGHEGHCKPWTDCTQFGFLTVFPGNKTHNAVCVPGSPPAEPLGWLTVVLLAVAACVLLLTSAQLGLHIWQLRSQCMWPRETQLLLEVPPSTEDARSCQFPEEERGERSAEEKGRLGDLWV
Assay: cell-based or functional assay
We begin with a simple list: items and their reported proliferation of naïve CD4+ T cells, mean, at 173.6 ng/mL Ab.

binder: 1D8 (antibody, V domains shown, Parental rodent anti-human GITR monoclonal antibody from a hybridoma; kappa VL; also called 1D8.B5) VH: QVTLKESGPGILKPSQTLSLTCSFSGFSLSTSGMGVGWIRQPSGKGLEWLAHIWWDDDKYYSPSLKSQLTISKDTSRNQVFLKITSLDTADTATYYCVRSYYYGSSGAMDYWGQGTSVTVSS VL: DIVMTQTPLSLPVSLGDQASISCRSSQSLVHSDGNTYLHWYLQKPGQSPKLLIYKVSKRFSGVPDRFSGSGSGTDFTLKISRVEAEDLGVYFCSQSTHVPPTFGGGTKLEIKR
meas.value: 91000
//
binder: 9E5 (antibody, V domains shown, Parental rodent anti-human GITR monoclonal antibody from a hybridoma; kappa VL; also called 9E5.C1) VH: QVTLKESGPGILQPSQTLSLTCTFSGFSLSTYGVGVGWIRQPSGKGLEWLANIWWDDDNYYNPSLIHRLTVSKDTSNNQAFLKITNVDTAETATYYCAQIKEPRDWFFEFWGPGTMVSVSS VL: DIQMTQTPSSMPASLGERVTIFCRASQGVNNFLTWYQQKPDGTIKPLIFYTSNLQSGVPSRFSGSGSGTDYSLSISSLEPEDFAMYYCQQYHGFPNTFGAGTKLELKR
meas.value: 84600
//
binder: 17F10 (antibody, V domains shown, Parental rodent anti-human GITR monoclonal antibody from a hybridoma; kappa VL; also called 17F10.B1) VH: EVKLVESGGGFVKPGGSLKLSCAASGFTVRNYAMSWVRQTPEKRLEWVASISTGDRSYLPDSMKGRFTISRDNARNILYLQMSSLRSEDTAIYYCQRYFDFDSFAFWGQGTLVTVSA VL: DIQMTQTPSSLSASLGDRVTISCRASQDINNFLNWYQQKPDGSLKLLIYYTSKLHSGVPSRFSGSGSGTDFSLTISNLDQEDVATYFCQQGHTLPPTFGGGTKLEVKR
meas.value: 87500
//
binder: 35D8 (antibody, V domains shown, Parental rodent anti-human GITR monoclonal antibody from a hybridoma; kappa VL; also called 35D8.B10) VH: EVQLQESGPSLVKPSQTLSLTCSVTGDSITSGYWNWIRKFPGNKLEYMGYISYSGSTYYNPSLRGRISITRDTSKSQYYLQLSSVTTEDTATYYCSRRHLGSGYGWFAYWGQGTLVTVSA VL: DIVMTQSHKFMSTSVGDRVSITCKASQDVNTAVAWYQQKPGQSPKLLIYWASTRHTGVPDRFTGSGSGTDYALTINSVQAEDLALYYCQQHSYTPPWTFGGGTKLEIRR
meas.value: 96200
//
binder: 31H6 (antibody, V domains shown, Parental rodent anti-human GITR monoclonal antibody from a hybridoma; kappa VL; also called 31H6.B7) VH: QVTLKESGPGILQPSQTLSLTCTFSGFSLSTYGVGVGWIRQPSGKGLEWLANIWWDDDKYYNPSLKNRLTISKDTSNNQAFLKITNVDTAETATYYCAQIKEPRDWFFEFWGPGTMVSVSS VL: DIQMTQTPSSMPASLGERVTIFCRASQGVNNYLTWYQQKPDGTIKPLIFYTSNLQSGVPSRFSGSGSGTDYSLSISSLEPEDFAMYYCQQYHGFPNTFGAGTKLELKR
meas.value: 96900

# evaluate next
Form field proliferation of naïve CD4+ T cells, mean, at 173.6 ng/mL Ab, entry 49A1 (antibody, V domains shown, Parental rodent anti-human GITR monoclonal antibody from a hybridoma; kappa VL; also called 49A1.B1) VH: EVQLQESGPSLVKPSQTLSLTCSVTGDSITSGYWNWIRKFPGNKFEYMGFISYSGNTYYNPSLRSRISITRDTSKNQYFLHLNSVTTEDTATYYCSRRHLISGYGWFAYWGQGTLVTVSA VL: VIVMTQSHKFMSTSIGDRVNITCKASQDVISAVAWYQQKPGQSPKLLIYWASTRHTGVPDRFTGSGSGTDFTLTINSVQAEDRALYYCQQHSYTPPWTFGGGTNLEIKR : 93600
